Biological target: Ba/F3 cells CD74-ROS1 wild-type (wt) (Homo sapiens, UniProt P08922)
Construct: fusion of the C-terminus of ROS1 with the N-terminus of various partner proteins; the other entry of the earlier key: CD74 (P04233, HLA class II histocompatibility antigen gamma chain)
Sequence (P08922 1883-2347 limits assumed): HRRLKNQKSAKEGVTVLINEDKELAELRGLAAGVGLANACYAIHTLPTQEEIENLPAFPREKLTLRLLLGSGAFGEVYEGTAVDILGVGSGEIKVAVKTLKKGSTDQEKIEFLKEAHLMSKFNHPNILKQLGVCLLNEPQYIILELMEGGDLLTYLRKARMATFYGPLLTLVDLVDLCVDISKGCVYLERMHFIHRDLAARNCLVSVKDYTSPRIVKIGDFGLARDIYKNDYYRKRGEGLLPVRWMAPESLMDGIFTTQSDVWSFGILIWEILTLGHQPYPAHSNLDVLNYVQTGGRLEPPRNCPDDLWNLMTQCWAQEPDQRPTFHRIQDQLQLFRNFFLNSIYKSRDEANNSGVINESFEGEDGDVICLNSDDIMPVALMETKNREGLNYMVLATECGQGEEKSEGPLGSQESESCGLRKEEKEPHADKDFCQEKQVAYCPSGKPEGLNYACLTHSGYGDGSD
Assay: Ba/F3 cell proliferation assay, CD74-ROS1 wild-type
Conditions: 72 hours, CellTiter-Glo
attribute_measured: IC50

Use these answered entries as a reference point.
* CCn1nc(C)c2c1-c1cnc(N)c(c1)O[C@H](C)c1cc(F)ccc1-c1nn(C)nc1C2 | 0.1 to 50 nM
* CCn1ncc2c1-c1cnc(N)c(c1)O[C@H](C)c1cc(F)ccc1-c1nsnc1C2 | 0.1 to 50 nM
* C[C@H]1Oc2cc(cnc2N)-c2c(c(Cl)nn2CC2CC2)Cc2nn(C)cc2-c2ccc(F)cc21 | 0.1 to 50 nM
* CCn1ncc2c1-c1cnc(N)c(c1)OC(C)c1cc(F)cnc1-c1ccnn1C2 (stereo not drawn) | 0.1 to 50 nM
* C[C@H]1Oc2cc(cnc2N)-c2c(C#N)noc2Cn2nccc2-c2ccc(F)cc21 | 0.1 to 50 nM
* CCn1ncc2c1-c1cnc(N)c(c1)O[C@H](C)c1cc(F)ccc1-c1cn(C)nc1C2 | 0.1 to 50 nM

The reported IC50 of the compound C[C@H]1Oc2cc(cnc2N)-c2c(C#N)ncn2Cc2nccnc2-c2ccc(F)cc21 was 0.1 to 50 nM

Noted for Cc1nc2n(n1)Cc1cnn(CC3CC3)c1-c1cnc(N)c(c1)O[C@H](C)c1cc(F)ccc1-2 : its IC50 reads 0.1 to 50 nM

// recorded IC50 for C[C@H]1Oc2cc(cnc2N)-c2c(C#N)cnn2Cc2ncsc2-c2ccc(F)cc21 : 0.1 to 50 nM

----------
Biological target: ROS1-G2032R (Homo sapiens, UniProt P08922, G2032R)
Sequence (P08922 1945-2222 G2032R limits assumed): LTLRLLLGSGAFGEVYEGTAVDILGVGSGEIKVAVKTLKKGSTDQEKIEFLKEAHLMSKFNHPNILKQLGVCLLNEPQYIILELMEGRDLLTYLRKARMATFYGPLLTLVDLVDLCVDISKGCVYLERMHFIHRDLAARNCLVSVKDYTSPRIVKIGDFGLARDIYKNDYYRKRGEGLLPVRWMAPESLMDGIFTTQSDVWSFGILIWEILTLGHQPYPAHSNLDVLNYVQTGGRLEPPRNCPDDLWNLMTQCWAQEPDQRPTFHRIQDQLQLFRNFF
Experiment: Biochemical kinase assay, ROS1-G2032R kinase domain
Settings: apparent inhibitory constant, Morrison equation; ATP 2 mM in substrate solution; read-out: ROS1-G2032R Ki^app
Procedure: First, 250 nL of compound dissolved in DMSO (100-fold of the desired concentration) was dispensed into a 384-well plate. […] The plate was sealed and read by SpectraMax Paradigm at λ=485 nm every 2 minutes for 120 minutes at 30° C. Initial rates of reaction (v) were calculated from the change in fluorescence intensity over time during the initial, linear portion of the reaction. […]
pKi: −log10 of the molar value.
attribute_measured: pKi

• C[C@H]1Oc2cc(cnc2N)-c2c(C#N)cnn2Cc2ncsc2-c2ccc(F)cc21 [Example 49] = 6.30 to 7.30
• CCn1ncc2c1-c1cnc(N)c(c1)O[C@H](C)c1cc(F)ccc1-c1ccnn1C2 [Example 1] = > 7.30
• CCn1ncc2c1-c1cnc(N)c(c1)O[C@H](C)c1cc(F)ccc1-c1c(F)cnn1C2 [Example 8] = > 7.30
• C[C@H]1Oc2cc(cnc2N)-c2c(c(Cl)nn2CC2CC2)Cc2nn(C)nc2-c2ccc(F)cc21 [Example 85] = > 7.30
• C[C@H]1Oc2cc(cnc2N)-c2c(cnn2C2CCC2)Cc2ncnn2-c2ccc(F)cc21 [Example 41] = > 7.30
• C[C@H]1Oc2cc(cnc2N)-c2c(cnn2C(F)F)Cn2nccc2-c2ccc(F)cc21 [Example 12] = 6.30 to 7.30

For reference, reported pKi for C[C@H]1Oc2cc(cnc2N)-c2c(c(Cl)nn2CC2CC2)Cc2nn(C)cc2-c2ccc(F)cc21 [Example 90] stands at > 7.30

Recorded pKi (compound CCn1ncc2c1-c1cnc(N)c(c1)O[C@H](C)c1cc(F)ccc1-c1c(C#N)cnn1C2 [Example 3] ): > 7.30

Summary for this compound, CCn1ncc2c1-c1cnc(N)c(c1)O[C@H](C)c1cc(F)ccc1-n1ccnc1C2 [Example 42] : pKi is > 7.30

Looking up CCn1ncc2c1-c1cnc(N)c(c1)O[C@H](C)c1cc(F)ccc1-c1nc(C)nn1C2 [Example 33] , I see its pKi listed as > 7.30

----------
Molecular target: Ba/F3 cells TPM3-TRKA (Homo sapiens, UniProt P04629)
Construct: the other entry of the earlier key: TPM3 (P06753, Tropomyosin alpha-3 chain)
Sequence (P04629 510-796 limits assumed): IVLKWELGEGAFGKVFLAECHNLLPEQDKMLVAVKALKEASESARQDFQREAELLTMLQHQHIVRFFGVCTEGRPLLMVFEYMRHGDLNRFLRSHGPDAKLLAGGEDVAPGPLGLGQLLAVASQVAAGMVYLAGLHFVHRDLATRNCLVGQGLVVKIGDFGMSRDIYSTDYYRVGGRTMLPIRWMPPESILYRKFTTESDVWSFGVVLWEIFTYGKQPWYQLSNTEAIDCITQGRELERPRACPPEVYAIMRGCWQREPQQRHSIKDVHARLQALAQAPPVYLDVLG
Experiment: Ba/F3 cell proliferation assay, TPM3-TRKA
Conditions: 72 hours, CellTiter-Glo, read-out: TPM3-NTRK1-wt IC50
attribute_measured: IC50

- C[C@H]1Oc2cc(cnc2N)-c2c(C#N)ncn2Cc2ncccc2-c2ccc(F)cc21: > 500 nM

The recorded IC50 for CCc1noc2c1-c1cnc(N)c(c1)O[C@H](C)c1cc(F)ccc1-c1ccnn1C2 is 50 to 500 nM

Consider C[C@H]1Oc2cc(cnc2N)-c2c(CC3CC3)nn(C)c2Cc2nn(C)nc2-c2ccc(F)cc21 . Its measured IC50 is > 500 nM

Given item Cc1nn(CC2CC2)c2c1Cc1nn(C)nc1-c1ccc(F)cc1COc1cc-2cnc1N , the value recorded as its IC50 is > 500 nM

Entry CCn1ncc2c1-c1cnc(N)c(c1)OCc1cc(F)ccc1-c1ccnn1C2 ; IC50 = > 500 nM

The compound identified as Cc1nn(CC(C)C)c2c1Cn1ncnc1-c1ccc(F)cc1[C@@H](C)Oc1cc-2cnc1N registered its IC50 at > 500 nM

----------
Molecular target: ALK L1196M/G1202R (Homo sapiens, UniProt Q9UM73, G1202R/L1196M)
Assay: Biochemical kinase assay, ALK L1196M/G1202R kinase domain
Conditions: apparent inhibitory constant, Morrison equation; ATP 2 mM in substrate solution; read-out: ALK-L1196M-G1202R Ki^app
pKi: −log10 of the molar value.
Measured pKi accompanies every entry in the list below.

- CCn1ncc2c1-c1cnc(N)c(c1)O[C@H](C)c1cc(F)ccc1-c1oc(C)nc1C2 [Example 66]: > 7.30
- C[C@H]1Oc2cc(cnc2N)-c2c(CC3CC3)nn(C)c2Cc2nn(C)nc2-c2ccc(F)cc21 [Example 100]: > 7.30
- Cc1nn(CC2CC2)c2c1Cc1nn(C)nc1-c1ccc(F)cc1COc1cc-2cnc1N [Example 71]: > 7.30

Lookup result for C[C@H]1Oc2cc(cnc2N)-c2c(C#N)ncn2Cc2ncc(F)cc2-c2ccc(F)cc21 [Example 48] ; measured pKi: > 7.30

The reported value for C[C@H]1Oc2cc(cnc2N)-c2c(cnn2C2CCC2)Cc2ncnn2-c2ccc(F)cc21 [Example 41] in terms of pKi is > 7.30

Entry under test: C[C@H]1Oc2cc(cnc2N)-c2c(C3CCC3)nnn2Cc2nn(C)nc2-c2ccc(F)cc21 [Example 30] . Its pKi was > 7.30

Documented pKi of C[C@H]1Oc2cc(cnc2N)-c2c(C#N)ncn2Cc2ncncc2-c2ccc(F)cc21 [Example 18] : 6.30 to 7.30

Memo: C[C@H]1Oc2cc(cnc2N)-c2c(C#N)ncn2Cc2nccnc2-c2ccc(F)cc21 [Example 46] , reported pKi: 6.30 to 7.30

----------
Target: Ba/F3 cells EML4-ALK L1196M/G1202R (variant 1) (Homo sapiens, UniProt Q9UM73, G1202R/L1196M)
Construct: echinoderm microtubule-associated protein-like 4 (EML4) gene and the ALK tyrosine kinase domain; the other entry of the earlier key: EML4 (Q9HC35, Echinoderm microtubule-associated protein-like 4)
Sequence (Q9UM73 with tags, fused parts or gaps L1196M/G1202R): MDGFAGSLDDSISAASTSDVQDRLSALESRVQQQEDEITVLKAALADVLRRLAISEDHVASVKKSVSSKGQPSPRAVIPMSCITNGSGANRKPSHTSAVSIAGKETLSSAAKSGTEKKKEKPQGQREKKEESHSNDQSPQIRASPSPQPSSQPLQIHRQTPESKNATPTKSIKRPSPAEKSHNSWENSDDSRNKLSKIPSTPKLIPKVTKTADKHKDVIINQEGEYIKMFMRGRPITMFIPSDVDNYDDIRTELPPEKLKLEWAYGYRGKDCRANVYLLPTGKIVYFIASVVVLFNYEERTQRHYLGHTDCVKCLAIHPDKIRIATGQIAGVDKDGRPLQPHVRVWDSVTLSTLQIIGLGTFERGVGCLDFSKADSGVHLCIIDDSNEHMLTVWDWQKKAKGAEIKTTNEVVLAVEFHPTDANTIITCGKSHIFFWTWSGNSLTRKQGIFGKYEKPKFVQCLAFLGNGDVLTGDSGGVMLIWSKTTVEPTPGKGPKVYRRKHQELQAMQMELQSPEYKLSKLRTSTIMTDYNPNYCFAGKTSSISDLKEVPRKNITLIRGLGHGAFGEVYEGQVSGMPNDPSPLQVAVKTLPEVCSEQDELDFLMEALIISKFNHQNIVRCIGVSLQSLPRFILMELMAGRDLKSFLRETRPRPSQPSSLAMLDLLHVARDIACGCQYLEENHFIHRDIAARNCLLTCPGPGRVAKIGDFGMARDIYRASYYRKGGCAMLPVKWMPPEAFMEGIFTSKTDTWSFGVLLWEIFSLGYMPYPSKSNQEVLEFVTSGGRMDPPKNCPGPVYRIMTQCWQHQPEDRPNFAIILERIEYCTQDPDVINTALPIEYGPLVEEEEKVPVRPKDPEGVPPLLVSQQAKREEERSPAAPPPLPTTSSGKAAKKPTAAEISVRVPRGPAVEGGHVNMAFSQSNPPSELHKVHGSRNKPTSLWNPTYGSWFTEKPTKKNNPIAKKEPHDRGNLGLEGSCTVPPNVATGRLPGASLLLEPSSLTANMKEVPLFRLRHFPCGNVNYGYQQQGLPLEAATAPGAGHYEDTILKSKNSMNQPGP
Test: Ba/F3 cell proliferation assay, EML4-ALK L1196M/G1202R (variant 1)
Details: 72 hours, CellTiter-Glo
Measured IC50 accompanies every entry in the list below.

Below: 2 compounds and their reported IC50.
• C[C@H]1Oc2cc(cnc2N)-c2c(cnn2CC(F)F)Cc2ncc(F)cc2-c2ccc(F)cc21 [Example 73] = 50 to 500 nM
• CCn1nc(Cl)c2c1-c1cnc(N)c(c1)O[C@H](C)c1cc(F)ccc1-c1nn(C)nc1C2 [Example 28] = 50 to 500 nM

// field: IC50; key: C[C@H]1Oc2cc(cnc2N)-c2c(C#N)nn(C)c2Cc2ncsc2-c2ccc(F)cc21 [Example 57] ; value = 50 to 500 nM

// recorded IC50 for CCn1nc(C(F)(F)F)c2c1-c1cnc(N)c(c1)O[C@H](C)c1cc(F)ccc1-c1nn(C)nc1C2 [Example 80] : > 500 nM

C[C@H]1Oc2cc(cnc2N)-c2c(cnn2CC(F)F)Cc2nn(C)nc2-c2ccc(F)cc21 [Example 24] yielded IC50 of 50 to 500 nM

The reported value for C[C@H]1Oc2cc(cnc2N)-c2c(cnn2CC2CC2)Cc2nn(C)cc2-c2ccc(F)cc21 [Example 61] in terms of IC50 is 0.1 to 50 nM

The reported IC50 of the compound C[C@H]1Oc2cc(cnc2N)-c2c(cnn2CC2CC2)Cn2ncnc2-c2ccc(F)cc21 [Example 70] was 50 to 500 nM

Just so you know, measured IC50 for C[C@H]1Oc2cc(cnc2N)-c2c(cnn2C2CCC2)Cn2ncc(C#N)c2-c2ccc(F)cc21 [Example 10] came out at 50 to 500 nM

For reference, reported IC50 for C[C@H]1Oc2cc(cnc2N)-c2c(c(Cl)nn2CC(F)F)Cc2nn(C)nc2-c2ccc(F)cc21 [Example 60] stands at > 500 nM

IC50 measured on C[C@H]1Oc2cc(cnc2N)-c2c(cnn2C2COC2)Cc2nn(C)nc2-c2ccc(F)cc21 [Example 83] = 50 to 500 nM

# IC50 of CCn1ncc2c1-c1cnc(N)c(c1)O[C@H](C)c1cc(F)ccc1-c1nn(C)nc1C2 [Example 5] = 0.1 to 50 nM

Entry CCc1nsc2c1-c1cnc(N)c(c1)O[C@H](C)c1cc(F)ccc1-c1ncnn1C2 [Example 44] — recorded IC50 = 50 to 500 nM

Just so you know, measured IC50 for Cc1nn(CC2CC2)c2c1Cn1nccc1-c1ccc(F)cc1[C@@H](C)Oc1cc-2cnc1N [Example 45] came out at 50 to 500 nM
